For each record, write down the corresponding MIC.
Test system: Escherichia coli K-12 ML 1629
testProtocol: microbe, parasite or virus in culture
Format: cell-based
measurementSetup: K12ML1629; Escherichia coli K-12 ML 1629; resistance mechanism APH(3')-I; Mueller-Hinton agar, 37° C; read-out: MIC
The response must be a number in µg/mL with no trailing unit.

// query Fill in reported MIC for this entry: NC[C@@H]1CC[C@@H](N)[C@@H](O[C@H]2[C@H](F)[C@@H](O[C@H]3O[C@H](CO)[C@@H](O)[C@H](N)[C@H]3O)[C@H](N)C[C@@H]2N)O1 [Compound 5F-DKB, 5,3',4'-trideoxy-5-fluorokanamycin B, reference compound]
// result 3.12

// query Fill in reported MIC for this entry: CN[C@@H]1[C@@H](O)[C@@H](O[C@@H]2[C@@H](O)[C@H](O[C@H]3O[C@H]([C@@H](C)N)CC[C@H]3N)[C@@H](N)C[C@H]2N)OC[C@]1(C)O [Genta-C2, gentamicin C2, reference compound]
// result 0.39

// query Fill in reported MIC for this entry: NCC[C@H](O)C(=O)N[C@@H]1C[C@H](N)[C@@H](O[C@H]2O[C@H](CN)[C@@H](O)C[C@H]2N)C(F)(F)[C@H]1O[C@H]1O[C@H](CO)[C@@H](O)[C@H](N)[C@H]1O
// result 0.39

// query Fill in reported MIC for this entry: CN[C@@H]1[C@@H](O)[C@@H](O[C@H]2[C@H](NC(=O)[C@@H](O)CCN)C[C@H](N)[C@@H](O[C@H]3O[C@H]([C@@H](C)N)CC[C@H]3N)C2(F)F)OC[C@]1(C)O
// result 0.39

// query Fill in reported MIC for this entry: CCN[C@@H]1C[C@H](N)[C@@H](O[C@H]2OC(CN)=CC[C@H]2N)[C@H](O)[C@H]1O[C@H]1OC[C@](C)(O)[C@H](NC)[C@H]1O [Netilmicin, netilmicin, reference compound]
// result 0.39

// query Fill in reported MIC for this entry: NCC[C@H](O)C(=O)N[C@@H]1C[C@H](N)[C@@H](O[C@H]2O[C@H](CN)[C@@H](O)C[C@H]2N)[C@H](F)[C@H]1O[C@H]1O[C@H](CO)[C@@H](O)[C@H](N)[C@H]1O [Compound 5F-TOB-AHB, reference compound]
// result 0.39

###

Test system: Bacillus subtilis PCI219
For each record, write down the corresponding MIC.
The response must be a number in µg/mL with no trailing unit.

// query With Bacillus subtilis PCI219 as the test system, provide measured MIC for this molecule: CN[C@@H]1[C@@H](O)[C@@H](O[C@H]2[C@H](NC(=O)[C@@H](O)CCN)C[C@H](N)[C@@H](O[C@H]3O[C@H]([C@@H](C)NC)CC[C@H]3N)C2(F)F)OC[C@]1(C)O
// result 1.56

// query With Bacillus subtilis PCI219 as the test system, provide measured MIC for this molecule: NC[C@@H]1CC[C@@H](N)[C@@H](O[C@@H]2[C@@H](N)C[C@@H](N)[C@H](O[C@H]3O[C@H](CO)[C@@H](O)[C@H](N)[C@H]3O)C2(F)F)O1
// result 0.39

###

Test system Serratia marcescens, MIC listed for each of the compounds.
The response must be a number in µg/mL with no trailing unit.

// query Fill in reported MIC for this entry: CN[C@@H]1[C@@H](O)[C@@H](O[C@H]2[C@H](N)C[C@H](N)[C@@H](O[C@H]3O[C@H]([C@@H](C)NC)CC[C@H]3N)C2(F)F)OC[C@]1(C)O
// result 1.56

// query Fill in reported MIC for this entry: NCC[C@H](O)C(=O)N[C@@H]1C[C@H](N)[C@@H](O[C@H]2O[C@H](CN)[C@@H](O)C[C@H]2N)C(F)(F)[C@H]1O[C@H]1O[C@H](CO)[C@@H](O)[C@H](N)[C@H]1O
// result 1.56
